Each recorded value in this set is attributed to PubChem BioAssay AID1963856.

- Test system: LG0567-F671-PDC KRAS tumor spheroid viability
- METHOD_DESCRIPTION: Anticancer human tumor LG0567-F671-PDC patient-derived lung adenocarcinoma cell line growth inhibition [KRAS2]
- EXPERIMENTAL_PARAMETERS: second compound 10 µM; first compound 0.1 µM; stronger effect = lower value; spheroids with HUVEC and MSC

MOLECULE	viability, T/C / %
CC1COCCN1c1cc(-c2ccnn2C)c2ccnc(-c3ccn[nH]3)c2n1 (stereo not given) + CNCc1ccccc1-c1csc(C(C)Nc2nc(C)nc3cc(OC)c(OC)cc23)c1	0.15
COc1cc(Nc2ncc3c(n2)-c2ccc(Cl)cc2C(c2c(F)cccc2OC)=NC3)ccc1C(=O)O + CNCc1ccccc1-c1csc(C(C)Nc2nc(C)nc3cc(OC)c(OC)cc23)c1	0.24
CC1(C)CCC(CN2CCN(c3ccc(C(=O)NS(=O)(=O)c4ccc(NCC5CCOCC5)c([N+](=O)[O-])c4)c(Oc4cnc5[nH]ccc5c4)c3)CC2)=C(c2ccc(Cl)cc2)C1 + CNCc1ccccc1-c1csc(C(C)Nc2nc(C)nc3cc(OC)c(OC)cc23)c1	0.89
CCNC(=O)CC1N=C(c2ccc(Cl)cc2)c2cc(OC)ccc2-n2c(C)nnc21 (stereo not given) + CC1OCC2(CCN(c3cnc(Sc4ccnc(N)c4Cl)c(N)n3)CC2)C1N	11.7
CC1OCC2(CCN(c3cnc(Sc4ccnc(N)c4Cl)c(N)n3)CC2)C1N (stereo not given) + C=CC(=O)N1CCN(c2nc(=O)n(-c3c(C)ccnc3C(C)C)c3nc(-c4c(O)cccc4F)c(F)cc23)C(C)C1	13.8

----------
Quick reference for viability, T/C among some compounds
- Tested on: LG0567-F671-PDC KRAS tumor spheroid viability
- METHOD_DESCRIPTION: Anticancer human tumor LG0567-F671-PDC cell line growth inhibition [KRAS2];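 also: drug exposure lasted seven days after spheroids formed for three days; 100% = DMSO vehicle control viability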
- EXPERIMENTAL_PARAMETERS: second compound 3.16 µM; first compound 0.0316 µM; stronger effect = lower value; spheroids with HUVEC and MSC

COMPOUND	SUBJECT_OF_TEST	viability, T/C, %
CCNC(=O)CC1N=C(c2ccc(Cl)cc2)c2cc(OC)ccc2-n2c(C)nnc21 (stereo not drawn) + C=CC(=O)N1CCN(c2nc(=O)n(-c3c(C)ccnc3C(C)C)c3nc(-c4c(O)cccc4F)c(F)cc23)C(C)C1	LG0567-F671-PDC KRAS tumor spheroid viability	25.9
CC(C)NCC(C(=O)N1CCN(c2ncnc3c2C(C)CC3O)CC1)c1ccc(Cl)cc1 (stereo not drawn) + C=CC(=O)N1CCN(c2nc(=O)n(-c3c(C)ccnc3C(C)C)c3nc(-c4c(O)cccc4F)c(F)cc23)C(C)C1	LG0567-F671-PDC KRAS tumor spheroid viability	29.9
CC(=O)Nc1cccc(-n2c(=O)n(C3CC3)c(=O)c3c(Nc4ccc(I)cc4F)n(C)c(=O)c(C)c32)c1 + CNCc1ccccc1-c1csc(C(C)Nc2nc(C)nc3cc(OC)c(OC)cc23)c1	LG0567-F671-PDC KRAS tumor spheroid viability	0.3

----------
- Test system: LG0567-F671-PDC KRAS tumor spheroid viability
- METHOD_DESCRIPTION: Anticancer human tumor LG0567-F671-PDC cell line growth inhibition [KRAS2];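 also: drug exposure lasted seven days after spheroids formed for three days; 100% = DMSO vehicle control viability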
- EXPERIMENTAL_PARAMETERS: second compound 1 µM; first compound 0.1 µM; stronger effect = lower value; spheroids with HUVEC and MSC

COMPOUND	viability, T/C [%]
O=C(c1cc(Cc2n[nH]c(=O)c3ccccc23)ccc1F)N1CCN(C(=O)C2CC2)CC1 + COc1cc2nc(C)nc(NC(C)c3cc(N)cc(C(F)(F)F)c3)c2cc1OC1CCOC1	117
CCNC(=O)CC1N=C(c2ccc(Cl)cc2)c2cc(OC)ccc2-n2c(C)nnc21 (stereo unspecified) + CC1OCC2(CCN(c3cnc(Sc4ccnc(N)c4Cl)c(N)n3)CC2)C1N	28.7
CC1(C)CCC(CN2CCN(c3ccc(C(=O)NS(=O)(=O)c4ccc(NCC5CCOCC5)c([N+](=O)[O-])c4)c(Oc4cnc5[nH]ccc5c4)c3)CC2)=C(c2ccc(Cl)cc2)C1 + C=CC(=O)N1CCN(c2nc(=O)n(-c3c(C)ccnc3C(C)C)c3nc(-c4c(O)cccc4F)c(F)cc23)C(C)C1	28.5
CC1COCCN1c1cc(-c2ccnn2C)c2ccnc(-c3ccn[nH]3)c2n1 (stereo unspecified) + CNCc1ccccc1-c1csc(C(C)Nc2nc(C)nc3cc(OC)c(OC)cc23)c1	42.6
CN(C)C/C=C/C(=O)Nc1cc2c(Nc3ccc(F)c(Cl)c3)ncnc2cc1O[C@H]1CCOC1 + COc1cc2nc(C)nc(NC(C)c3cc(N)cc(C(F)(F)F)c3)c2cc1OC1CCOC1	49.3
COc1cc2nccc(Oc3ccc(NC(=O)C4(C(=O)Nc5ccc(F)cc5)CC4)cc3)c2cc1OC + CNCc1ccccc1-c1csc(C(C)Nc2nc(C)nc3cc(OC)c(OC)cc23)c1	58.2

----------
- Test system: LG0567-F671-PDC KRAS tumor spheroid viability
- METHOD_DESCRIPTION: Anticancer human tumor LG0567-F671-PDC cell line growth inhibition [KRAS2]; active means viability on the fitted dose curve at most 10% of control; inactive means the rest;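 also: drug exposure lasted seven days after spheroids formed for three days; 100% = DMSO vehicle control viability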
- EXPERIMENTAL_PARAMETERS: second compound 10 µM; first compound 0.316 µM; spheroids with HUVEC and MSC
Labels: Yes (active), No (inactive)

COMPOUND	CLASSIFICATION
CC(C)NCC(C(=O)N1CCN(c2ncnc3c2C(C)CC3O)CC1)c1ccc(Cl)cc1 (stereo not given) + CC1OCC2(CCN(c3cnc(Sc4ccnc(N)c4Cl)c(N)n3)CC2)C1N	Yes
CC1OCC2(CCN(c3cnc(Sc4ccnc(N)c4Cl)c(N)n3)CC2)C1N (stereo not given) + C=CC(=O)N1CCN(c2nc(=O)n(-c3c(C)ccnc3C(C)C)c3nc(-c4c(O)cccc4F)c(F)cc23)C(C)C1	Yes
COC(=O)c1ccc2c(C(=Nc3ccc(N(C)C(=O)CN4CCN(C)CC4)cc3)c3ccccc3)c(O)[nH]c2c1 + C=CC(=O)N1CCN(c2nc(=O)n(-c3c(C)ccnc3C(C)C)c3nc(-c4c(O)cccc4F)c(F)cc23)C(C)C1	No
Cn1nccc1Nc1nccc(-c2cc3c(s2)C(C)(C)N(CCN2CCOCC2)C3=O)n1 + C=CC(=O)N1CCN(c2nc(=O)n(-c3c(C)ccnc3C(C)C)c3nc(-c4c(O)cccc4F)c(F)cc23)C(C)C1	No
CC(=O)OC12COC1CC(O)C1(C)C(=O)C(O)C3=C(C)C(OC(=O)C(O)C(NC(=O)OC(C)(C)C)c4ccccc4)CC(O)(C(OC(=O)c4ccccc4)C21)C3(C)C (stereo not given) + CNCc1ccccc1-c1csc(C(C)Nc2nc(C)nc3cc(OC)c(OC)cc23)c1	Yes
CCNC(=O)CC1N=C(c2ccc(Cl)cc2)c2cc(OC)ccc2-n2c(C)nnc21 (stereo not given) + COc1cc2nc(C)nc(NC(C)c3cc(N)cc(C(F)(F)F)c3)c2cc1OC1CCOC1	No
Cn1nccc1Nc1nccc(-c2cc3c(s2)C(C)(C)N(CCN2CCOCC2)C3=O)n1 + CC1OCC2(CCN(c3cnc(Sc4ccnc(N)c4Cl)c(N)n3)CC2)C1N	Yes
COC(=O)c1ccc2c(C(=Nc3ccc(N(C)C(=O)CN4CCN(C)CC4)cc3)c3ccccc3)c(O)[nH]c2c1 + CC1OCC2(CCN(c3cnc(Sc4ccnc(N)c4Cl)c(N)n3)CC2)C1N	No
COc1cc(Nc2ncc3c(n2)-c2ccc(Cl)cc2C(c2c(F)cccc2OC)=NC3)ccc1C(=O)O + COc1cc2nc(C)nc(NC(C)c3cc(N)cc(C(F)(F)F)c3)c2cc1OC1CCOC1	No
CCNC(=O)CC1N=C(c2ccc(Cl)cc2)c2cc(OC)ccc2-n2c(C)nnc21 (stereo not given) + CNCc1ccccc1-c1csc(C(C)Nc2nc(C)nc3cc(OC)c(OC)cc23)c1	Yes
CCN1CCN(Cc2ccc(Nc3ncc(F)c(-c4cc(F)c5nc(C)n(C(C)C)c5c4)n3)nc2)CC1 + C=CC(=O)N1CCN(c2nc(=O)n(-c3c(C)ccnc3C(C)C)c3nc(-c4c(O)cccc4F)c(F)cc23)C(C)C1	No
CC1(C)CCC(CN2CCN(c3ccc(C(=O)NS(=O)(=O)c4ccc(NCC5CCOCC5)c([N+](=O)[O-])c4)c(Oc4cnc5[nH]ccc5c4)c3)CC2)=C(c2ccc(Cl)cc2)C1 + C=CC(=O)N1CCN(c2nc(=O)n(-c3c(C)ccnc3C(C)C)c3nc(-c4c(O)cccc4F)c(F)cc23)C(C)C1	No
COc1cc(Nc2ncc3c(n2)-c2ccc(Cl)cc2C(c2c(F)cccc2OC)=NC3)ccc1C(=O)O + CNCc1ccccc1-c1csc(C(C)Nc2nc(C)nc3cc(OC)c(OC)cc23)c1	Yes
CC1COCCN1c1cc(-c2ccnn2C)c2ccnc(-c3ccn[nH]3)c2n1 (stereo not given) + C=CC(=O)N1CCN(c2nc(=O)n(-c3c(C)ccnc3C(C)C)c3nc(-c4c(O)cccc4F)c(F)cc23)C(C)C1	No
CC(C)NCC(C(=O)N1CCN(c2ncnc3c2C(C)CC3O)CC1)c1ccc(Cl)cc1 (stereo not given) + COc1cc2nc(C)nc(NC(C)c3cc(N)cc(C(F)(F)F)c3)c2cc1OC1CCOC1	No
CCNC(=O)CC1N=C(c2ccc(Cl)cc2)c2cc(OC)ccc2-n2c(C)nnc21 (stereo not given) + C=CC(=O)N1CCN(c2nc(=O)n(-c3c(C)ccnc3C(C)C)c3nc(-c4c(O)cccc4F)c(F)cc23)C(C)C1	No
CC1(C)CCC(CN2CCN(c3ccc(C(=O)NS(=O)(=O)c4ccc(NCC5CCOCC5)c([N+](=O)[O-])c4)c(Oc4cnc5[nH]ccc5c4)c3)CC2)=C(c2ccc(Cl)cc2)C1 + COc1cc2nc(C)nc(NC(C)c3cc(N)cc(C(F)(F)F)c3)c2cc1OC1CCOC1	No
O=C(c1cc(Cc2n[nH]c(=O)c3ccccc23)ccc1F)N1CCN(C(=O)C2CC2)CC1 + CC1OCC2(CCN(c3cnc(Sc4ccnc(N)c4Cl)c(N)n3)CC2)C1N	No
Cn1nccc1Nc1nccc(-c2cc3c(s2)C(C)(C)N(CCN2CCOCC2)C3=O)n1 + COc1cc2nc(C)nc(NC(C)c3cc(N)cc(C(F)(F)F)c3)c2cc1OC1CCOC1	No
CC(C)NCC(C(=O)N1CCN(c2ncnc3c2C(C)CC3O)CC1)c1ccc(Cl)cc1 (stereo not given) + CNCc1ccccc1-c1csc(C(C)Nc2nc(C)nc3cc(OC)c(OC)cc23)c1	Yes
